B1: HDV Ribozyme (parent)
chain: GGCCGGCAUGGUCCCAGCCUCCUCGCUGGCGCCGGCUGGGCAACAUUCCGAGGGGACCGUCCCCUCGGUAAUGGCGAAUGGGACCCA

Variants of: B1
Experiment: self-cleavage, relative activity (ratio to wild type); higher = more cleavage; co-transcriptional
Cut-off 0.2 on self-cleavage, inclusive. At or above means label 1; below means label 0.

- macromolecule_sequence: "GGCCGGCAUGGUCCUAGCCUCCUCGCUGGCGCCAGCUGGGCAACAUUCCGAGGGGACCGUCCCCUCGGUAAUGGCGAAUGGGACCCA"
  label: "label 0"
- macromolecule_sequence: "GGCCGGCAUGGUUCCAGCCUCCUCGCUGGCGCCGGGUGGGCAACAUUCCGAGGGGACCGUCCCCUCGGUAAUGGCGAAUGGGACCCA"
  label: "label 0"
- macromolecule_sequence: "GGCCGGCAUGGUCCCUGCCUCCUCGCUGGCGCCGGCUGGGCAACAUUCCGCGGGGACCGUCCCCUCGGUAAUGGCGAAUGGGACCCA"
  label: "label 1"
- macromolecule_sequence: "GGCCGGCAUGGUCCCAGCCUCCUCGCUGGCGCCGGCUGGGCAACAUGCCGAGGGGACCGUUCCCUCGGUAAUGGCGAAUGGGACCCA"
  label: "label 1"
- macromolecule_sequence: "GGCCGGCAUGGUCCCAGCCUCCUCGCUGGCGCCGGCAGGGCAACAUUCCGAGGGGACCGUCCCCUUGGUAAUGGCGAAUGGGACCCA"
  label: "label 1"
- macromolecule_sequence: "GGCCGGCAUGGUCCCAGCCUCCUCGUUGGCGCCGGCUGGGCAACAUUCCGAGGGGACCGUCCCCUCGGUAAUGGUGAAUGGGACCCA"
  label: "label 0"
- macromolecule_sequence: "GGCCGGCAUGGUCCCAGCCUCCUCGCUGGCGCCGUCUGGGCAACAUUCCGAGGGGACCGUCCCCUCGGUAAUGGCGAAUGGGCCCCA"
  label: "label 0"
- macromolecule_sequence: "GGCCGGCAUGGUCCCAGCCUCCUCGCUGGCGCCGGCUGGGCAACAAUCCGAGGGGACCGUCCUCUCGGUAAUGGCGAAUGGGACCCA"
  label: "label 1"
- macromolecule_sequence: "GGCCGGCAUGGUCCCAGUCUCCUCGCUGGCGCCGGCUGGGCAACAUUCCGAGGGGACCGUCCCCCCGGUAAUGGCGAAUGGGACCCA"
  label: "label 1"
- macromolecule_sequence: "GGCGGGCAUGGUCCGAGCCUCCUCGCUGGCGCCGGCUGGGCAACAUUCCGAGGGGACCGUCCCCUCGGUAAUGGCGAAUGGGACCCA"
  label: "label 1"
- macromolecule_sequence: "GUCCGGCAUGGUCCCAGCCUCCUCGCUGGCGCCGGCUGGGCAACAUUCCGAGGGGACCGUCCCAUCGGUAAUGGCGAAUGGGACCCA"
  label: "label 0"
- macromolecule_sequence: "GGCCGGCAUGGUCCCAGCCUCUUCGCUGGCGCCGGCUGGGCAACAUUCCGAGGGGACCGUCCCCUCGGUAAUGGCGAAUAGGACCCA"
  label: "label 0"
- macromolecule_sequence: "GGCCGGCGUGGUCCCAGCCUCCCCGCUGGCGCCGGCUGGGCAACAUUCCGAGGGGACCGUCCCCUCGGUAAUGGCGAAUGGGACCCA"
  label: "label 1"
- macromolecule_sequence: "GGCCGGCAUGGUCCCAGCCUCCUCGCUGGCGCCGGCUGGGCAACAUUCCGAGGGGACCGUCCCCUCGGUAAUGGCGAAUGCGGCCCA"
  label: "label 0"
- macromolecule_sequence: "GGCCGGCAUGGUCCCAGCCUCCUCGAUGGCGCCGGCUGGGCAGCAUUCCGAGGGGACCGUCCCCUCGGUAAUGGCGAAUGGGACCCA"
  label: "label 1"
- macromolecule_sequence: "GGCCGGCAUGGUCCCAGCCUCCUCGCUGGCGCCGGCUGGGCAACAUUCCGAGGGGACAGUCCCCUCGGUAAUGGCGAAUGGGACCUA"
  label: "label 1"
- macromolecule_sequence: "GGCCGGCAUGGUCCCAGCCUCCUCGCUGGCGCCGGCUGGGCAACCUUCCGAGGGGACCGUCCCCUCGGUAAAGGCGAAUGGGACCCA"
  label: "label 1"
- macromolecule_sequence: "GGCCGGCAUGGUCCCAGCCUCCUCGCUGGCGCCGGCUGGGCAACAUUCCGAGGUGACCGUCCCCUCGGCAAUGGCGAAUGGGACCCA"
  label: "label 1"
- macromolecule_sequence: "GGCCGGCAUGGUCCCAGCCUCCUCGCCGGCGCCGGCCGGGCAACAUUCCGAGGGGACCGUCCCCUCGGUAAUGGCGAAUGGGACCCA"
  label: "label 1"
- macromolecule_sequence: "GGCCGGCAUGGUCCCAGGCUCCUCGCUGGCGCCGGCUGGGCAACAUUCCGAGGGGACCGUCCACUCGGUAAUGGCGAAUGGGACCCA"
  label: "label 0"
- macromolecule_sequence: "GCCCGGCAUGGUCCCAGCCUCCUCGCUGGCGCCGGCUGGGCAACAUUCCGAGGGGACCGUGCCCUCGGUAAUGGCGAAUGGGACCCA"
  label: "label 0"
- macromolecule_sequence: "GGCCGGCAUGGUCCCAGCCUCCUCGCUGGCGCCGGCUGGGCAACAUUCCGCGGGGACCGUCCACUCGGUAAUGGCGAAUGGGACCCA"
  label: "label 1"
